Where do these numbers come from? They come from patent US12060400B2.

- Test system: HLA-A*24
- method: MHC binding assay: UV-ligand exchange with beta2m ELISA (peptide exchange yield)
- Set-up: species or system human
- measurement_setup: Table 11, binding to HLA-A*24, UV-ligand exchange
experimental_endpoint: Peptide exchange (MHC class I binding score, peptide exchange yield)

Example entries and their recorded answers appear below.
{"substance": "17 (IYPEAIATL; listed as Homo sapiens) [compound 17]", "assayed_target": "HLA-A*24", "reported": "++++ (>75% = ++++)"}
{"substance": "140 (IFQHFCEEI; listed as Homo sapiens) [compound 140]", "assayed_target": "HLA-A*24", "reported": "++ (>20% = ++)"}
{"substance": "96 (SHIGVVLAF; listed as Homo sapiens) [compound 96]", "assayed_target": "HLA-A*24", "reported": "++ (>20% = ++)"}
{"substance": "154 (DYSKQALSL; listed as Homo sapiens) [compound 154]", "assayed_target": "HLA-A*24", "reported": "++ (>20% = ++)"}
{"substance": "113 (ALMSAFYTF; listed as Homo sapiens) [compound 113]", "assayed_target": "HLA-A*24", "reported": "++++ (>75% = ++++)"}
{"substance": "242 (SYTPLLSYI; listed as Homo sapiens) [compound 242]", "assayed_target": "HLA-A*24", "reported": "++++ (>75% = ++++)"}
{"substance": "68 (VYKEDLPQL; listed as Homo sapiens) [compound 68]", "assayed_target": "HLA-A*24", "reported": "++++ (>75% = ++++)"}

Switching to the query record.
Input line: Entry 263 (AYVTEFVSL; listed as Homo sapiens) [compound 263] has what Peptide exchange (MHC class I binding score, peptide exchange yield)?
Output line: ++++ (>75% = ++++)

* * *

- System: HLA-A*24
- method: MHC binding assay: UV-ligand exchange with beta2m ELISA (peptide exchange yield)
- Set-up: species or system human
- measurement_setup: Table 11, binding to HLA-A*24, UV-ligand exchange
experimental_endpoint: Peptide exchange (MHC class I binding score, peptide exchange yield)

Example entries and their recorded answers appear below.
{"substance": "10 (QYPEFSIEL; listed as Homo sapiens) [compound 10]", "assayed_target": "HLA-A*24", "reported": "+++ (>50 = +++)"}
{"substance": "101 (VYAVSSDRF; listed as Homo sapiens) [compound 101]", "assayed_target": "HLA-A*24", "reported": "++++ (>75% = ++++)"}
{"substance": "25 (MLPEASLLI; listed as Homo sapiens) [compound 25]", "assayed_target": "HLA-A*24", "reported": "++++ (>75% = ++++)"}
{"substance": "211 (MLYFAPDLIL; listed as Homo sapiens) [compound 211]", "assayed_target": "HLA-A*24", "reported": "++ (>20% = ++)"}
{"substance": "70 (RYTGQWSEW; listed as Homo sapiens) [compound 70]", "assayed_target": "HLA-A*24", "reported": "++++ (>75% = ++++)"}
{"substance": "265 (LYQQSDTWSL; listed as Homo sapiens) [compound 265]", "assayed_target": "HLA-A*24", "reported": "++ (>20% = ++)"}

Input line: Which Peptide exchange (MHC class I binding score, peptide exchange yield) is reported with HLA-A*24 for this entry: 252 (RYLIIKYPF; listed as Homo sapiens) [compound 252] ?
Output line: +++ (>50 = +++)

Input line: Which Peptide exchange (MHC class I binding score, peptide exchange yield) is reported with HLA-A*24 for this entry: 141 (QYAAAITNGL; listed as Homo sapiens) [compound 141] ?
Output line: +++ (>50 = +++)
